# Measurement Target: PRKCD (human)
# Assay Protocol: split-luciferase competition binding
# Condition Notes: compound 10.0 µM
Measured Metric: inhibition (%)

>>> df
                                 mol_smiles  measured_metric  units_text  numeric_result
0  CCN(CC)CCNC(=O)c1c(C)[nH]c(/C=C2\C(=O)Nc3ccc(F)cc32)c1C       inhibition           %               0
1  COc1nccc(-c2c(-c3ccc(F)cc3)ncn2[C@H]2CC[C@H](O)CC2)n1       inhibition           %               6
2        C/C(O)=C(\C#N)C(=O)Nc1cc(Br)ccc1Br       inhibition           %               0
3  Nc1ccc(-c2cccc3c(=O)cc(N4CCOCC4)oc23)cc1       inhibition           %               0

a: O=C1NC(=O)c2cc(Nc3ccc(F)cc3)c(Nc3ccc(F)cc3)cc21
b: Oc1ccc(-c2nc(-c3ccc(F)cc3)c(-c3ccncc3)[nH]2)cc1
c: COc1cc2ncn(-c3cc(OCc4ccccc4C(F)(F)F)c(C(N)=O)s3)c2cc1OC
Query :: Order field: inhibition | Direction: descending (largest first) Lab note: record answer as labels in requested order.
Result :: b, c, a
(b: 7%, c: 4%, a: 0%)
